Each entry below carries its recorded log2 fold change.
- Experimental Target: ZFPL1 (UniProt O95159)
- Sequence (O95159 whole entry, looked up): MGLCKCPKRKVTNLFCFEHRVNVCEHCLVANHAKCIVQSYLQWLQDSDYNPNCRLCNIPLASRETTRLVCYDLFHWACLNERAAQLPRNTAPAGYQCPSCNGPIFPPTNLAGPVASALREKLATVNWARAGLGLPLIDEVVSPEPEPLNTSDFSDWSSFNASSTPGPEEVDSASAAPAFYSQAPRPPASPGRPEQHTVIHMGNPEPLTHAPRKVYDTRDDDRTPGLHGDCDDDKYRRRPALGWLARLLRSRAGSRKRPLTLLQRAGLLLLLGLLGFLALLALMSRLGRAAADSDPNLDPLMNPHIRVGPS
- Experiment Description: log2 fold change, soluble protein after heating vs DMSO (PISA); higher = thermal stabilisation; K562 cells, 10 uM, 30 min; active = over 0.2 and 3.5 SD of the protein, either way, in both replicates (recomputed)
Targets with a hit are over-represented here; the source holds about 7,900 in all. About 0.6% of all pairs of compound and target were hits.

Chem Smiles | log2 fold change
CS(=O)(=O)N1CCN(Cc2cc3nc(-c4cccc5[nH]ncc45)nc(N4CCOCC4)c3s2)CC1 | 0.173 (inactive)
COc1cc(C(=O)O)ccc1NC(=O)[C@@H]1N[C@@H](CC(C)(C)C)[C@](C#N)(c2ccc(Cl)cc2F)[C@H]1c1cccc(Cl)c1F | -0.026 (inactive)

Provide one value: measured log2 fold change of CO[C@H]1C[C@@H]2CC[C@@H](C)[C@@](O)(O2)C(=O)C(=O)N2CCCC[C@H]2C(=O)O[C@H]([C@H](C)C[C@@H]2CC[C@H](n3cnnn3)[C@H](OC)C2)CC(=O)[C@H](C)/C=C(\C)[C@@H](O)[C@@H](OC)C(=O)[C@H](C)C[C@H](C)/C=C/C=C/C=C/1C
0.006 (inactive)

Specify measured log2 fold change for Cc1ccc(NC(=O)c2ccc(CN3CC[C@H](N(C)C)C3)c(C(F)(F)F)c2)cc1Nc1nccc(-c2cncnc2)n1 .
-0.022 (inactive)

Given the molecule C[C@@H](N)c1ccc(C(=O)Nc2ccnc3[nH]ccc23)cc1 , write its reported log2 fold change.
-0.006 (inactive)

Specify reported log2 fold change for the molecule shown: Cc1ccc(-n2nc(C(C)(C)C)cc2NC(=O)Nc2ccc(OCCN3CCOCC3)c3ccccc23)cc1
-0.098 (inactive)

Report measured log2 fold change; entry is O=C(Nc1nc2ccccc2n1CCN1CCOCC1)c1cccc([N+](=O)[O-])c1
0.021 (inactive)
